Target: HMGCR (TM1-8)-GFP (Cricetulus griseus)
Sequence (P00347 1-346): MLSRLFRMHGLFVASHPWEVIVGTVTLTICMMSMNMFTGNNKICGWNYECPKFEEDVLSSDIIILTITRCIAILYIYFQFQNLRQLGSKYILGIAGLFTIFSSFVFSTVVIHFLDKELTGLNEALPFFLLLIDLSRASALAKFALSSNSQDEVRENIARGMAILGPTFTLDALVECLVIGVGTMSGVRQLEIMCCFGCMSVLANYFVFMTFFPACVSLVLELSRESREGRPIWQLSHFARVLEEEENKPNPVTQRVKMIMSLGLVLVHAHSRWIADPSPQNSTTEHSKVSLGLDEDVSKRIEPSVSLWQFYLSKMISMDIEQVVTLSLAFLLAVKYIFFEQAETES
Test: HMGCR (TM1-8)-GFP fluorescent assay (high-content imaging) in CHG cells
Conditions: read-out: Mean (HMGCR (TM1-8)-GFP signal relative to 0 μM = 100)
Readout kind: remaining activity at 5 µM (%)
Reply numerically in %, unit not repeated.

In one line, give reported remaining activity at 5 µM of the entry COCCC[C@@H](C)C1CCC2C3C(CC[C@@]21C)[C@@]1(C)CC[C@H](O)C(C)(C)C1=C[C@@H]3O (stereo partly shown) . 28.5

In one line, give reported remaining activity at 5 µM of the entry C[C@H](CCCCCCO)C1CCC2C3C(CC[C@@]21C)[C@@]1(C)CC[C@H](O)C(C)(C)C1=C[C@@H]3O (stereo partly shown) . 22

In one line, give reported remaining activity at 5 µM of the entry C[C@H](CCC(C)(C)O)C1CCC2C3C(CC[C@@]21C)[C@@]1(C)CC[C@H](O)C(C)(C)C1=C[C@@H]3O (stereo partly shown) . 72.2

In one line, give reported remaining activity at 5 µM of the entry CCC(O)CCCCC[C@@H](C)C1CCC2C3C(CC[C@@]21C)[C@@]1(C)CC[C@H](O)C(C)(C)C1=C[C@@H]3O (stereo partly shown) . 34.7

###

Biological target: HMGCR (TM1-8)-GFP (Cricetulus griseus, UniProt P00347)
Test: HMGCR (TM1-8)-GFP fluorescent assay (high-content imaging) in CHG cells
Details: read-out: Mean (HMGCR (TM1-8)-GFP signal relative to 0 μM = 100)
Readout kind: remaining activity at 0.313 µM (%)
Reply numerically in %, unit not repeated.

// output remaining activity at 0.313 µM; input C[C@H](CCCCC(=O)O)C1CCC2C3C(CC[C@@]21C)[C@@]1(C)CC[C@H](O)C(C)(C)C1=C[C@@H]3O (stereo partly drawn) ; system HMGCR (TM1-8)-GFP (Cricetulus griseus, UniProt P00347) 98.4

// output remaining activity at 0.313 µM; input CCC(O)CCC[C@@H](C)C1CCC2C3C(CC[C@@]21C)[C@@]1(C)CC[C@H](O)C(C)(C)C1=C[C@@H]3O (stereo partly drawn) ; system HMGCR (TM1-8)-GFP (Cricetulus griseus, UniProt P00347) 78.3

// output remaining activity at 0.313 µM; input C[C@H](CCCCC(C)(C)O)C1CCC2C3C(CC[C@@]21C)[C@@]1(C)CC[C@H](O)C(C)(C)C1=C[C@@H]3O (stereo partly drawn) ; system HMGCR (TM1-8)-GFP (Cricetulus griseus, UniProt P00347) 69.4

// output remaining activity at 0.313 µM; input CCC(O)CCCCC[C@@H](C)C1CCC2C3C(CC[C@@]21C)[C@@]1(C)CC[C@H](O)C(C)(C)C1=C[C@@H]3O (stereo partly drawn) ; system HMGCR (TM1-8)-GFP (Cricetulus griseus, UniProt P00347) 77.5

// output remaining activity at 0.313 µM; input C=CCC(O)CCC[C@@H](C)C1CCC2C3C(CC[C@@]21C)[C@@]1(C)CC[C@H](O)C(C)(C)C1=C[C@@H]3O (stereo partly drawn) ; system HMGCR (TM1-8)-GFP (Cricetulus griseus, UniProt P00347) 75.6

// output remaining activity at 0.313 µM; input COC(=O)CC[C@@H](C)C1CCC2C3C(CC[C@@]21C)[C@@]1(C)CC[C@H](O)C(C)(C)C1=C[C@@H]3O (stereo partly drawn) ; system HMGCR (TM1-8)-GFP (Cricetulus griseus, UniProt P00347) 100

// output remaining activity at 0.313 µM; input C=CCC(O)CC[C@@H](C)C1CCC2C3C(CC[C@@]21C)[C@@]1(C)CC[C@H](O)C(C)(C)C1=C[C@@H]3O (stereo partly drawn) ; system HMGCR (TM1-8)-GFP (Cricetulus griseus, UniProt P00347) 103

// output remaining activity at 0.313 µM; input C[C@H](CCCC(=O)O)C1CCC2C3C(CC[C@@]21C)[C@@]1(C)CC[C@H](O)C(C)(C)C1=C[C@@H]3O (stereo partly drawn) ; system HMGCR (TM1-8)-GFP (Cricetulus griseus, UniProt P00347) 97.9

// output remaining activity at 0.313 µM; input CC(O)CCCC[C@@H](C)C1CCC2C3C(CC[C@@]21C)[C@@]1(C)CC[C@H](O)C(C)(C)C1=C[C@@H]3O (stereo partly drawn) ; system HMGCR (TM1-8)-GFP (Cricetulus griseus, UniProt P00347) 83.1

###

Biological target: HMGCR (TM1-8)-GFP (Cricetulus griseus, UniProt P00347)
Sequence (P00347 1-346): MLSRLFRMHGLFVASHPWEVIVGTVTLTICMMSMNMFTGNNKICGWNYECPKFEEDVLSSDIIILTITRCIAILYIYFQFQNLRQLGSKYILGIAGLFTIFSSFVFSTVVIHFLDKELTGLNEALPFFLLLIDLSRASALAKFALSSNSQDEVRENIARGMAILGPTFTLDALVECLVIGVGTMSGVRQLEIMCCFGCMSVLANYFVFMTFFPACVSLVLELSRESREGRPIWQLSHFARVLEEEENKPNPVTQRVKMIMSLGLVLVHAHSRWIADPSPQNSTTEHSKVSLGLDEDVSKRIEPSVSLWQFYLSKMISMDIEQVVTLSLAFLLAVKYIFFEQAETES
Assay: HMGCR (TM1-8)-GFP fluorescent assay (high-content imaging) in CHG cells
Details: read-out: Mean (HMGCR (TM1-8)-GFP signal relative to 0 μM = 100)
Please provide measured remaining activity at 10 µM for the entries that follow.
Reply numerically in %, unit not repeated.

// output remaining activity at 10 µM; input C[C@H](CCC(=O)O)C1CCC2C3C(CC[C@@]21C)[C@@]1(C)CC[C@H](O)C(C)(C)C1=C[C@@H]3O (stereo partly drawn) ; system HMGCR (TM1-8)-GFP (Cricetulus griseus, UniProt P00347) 98.3

// output remaining activity at 10 µM; input COCCC[C@@H](C)C1CCC2C3C(CC[C@@]21C)[C@@]1(C)CC[C@H](O)C(C)(C)C1=C[C@@H]3O (stereo partly drawn) ; system HMGCR (TM1-8)-GFP (Cricetulus griseus, UniProt P00347) 21.9

// output remaining activity at 10 µM; input C[C@H](CCCCCC(C)(C)O)C1CCC2C3C(CC[C@@]21C)[C@@]1(C)CC[C@H](O)C(C)(C)C1=C[C@@H]3O (stereo partly drawn) ; system HMGCR (TM1-8)-GFP (Cricetulus griseus, UniProt P00347) 20.4

###

Molecular target: HMGCR (TM1-8)-GFP (Cricetulus griseus)
Test: HMGCR (TM1-8)-GFP fluorescent assay (high-content imaging) in CHG cells
Settings: read-out: Mean (HMGCR (TM1-8)-GFP signal relative to 0 μM = 100)
Binarize remaining activity at 2.5 µM at 40%; below is TRUE, at or above is FALSE.

Please determine if COCCCC[C@@H](C)C1CCC2C3C(CC[C@@]21C)[C@@]1(C)CC[C@H](O)C(C)(C)C1=C[C@@H]3O (stereo partly drawn) is below 40% in terms of remaining activity at 2.5 µM. TRUE

Please determine if C=CCC(O)CCC[C@@H](C)C1CCC2C3C(CC[C@@]21C)[C@@]1(C)CC[C@H](O)C(C)(C)C1=C[C@@H]3O (stereo partly drawn) is below 40% in terms of remaining activity at 2.5 µM. TRUE

Please determine if C=CCC(O)CCCCC[C@@H](C)C1CCC2C3C(CC[C@@]21C)[C@@]1(C)CC[C@H](O)C(C)(C)C1=C[C@@H]3O (stereo partly drawn) is below 40% in terms of remaining activity at 2.5 µM. FALSE

Please determine if CC(O)CC[C@@H](C)C1CCC2C3C(CC[C@@]21C)[C@@]1(C)CC[C@H](O)C(C)(C)C1=C[C@@H]3O (stereo partly drawn) is below 40% in terms of remaining activity at 2.5 µM. FALSE

Please determine if COC(=O)CCC[C@@H](C)C1CCC2C3C(CC[C@@]21C)[C@@]1(C)CC[C@H](O)C(C)(C)C1=C[C@@H]3O (stereo partly drawn) is below 40% in terms of remaining activity at 2.5 µM. FALSE

Please determine if CCC(O)(CC)CCCC[C@@H](C)C1CCC2C3C(CC[C@@]21C)[C@@]1(C)CC[C@H](O)C(C)(C)C1=C[C@@H]3O (stereo partly drawn) is below 40% in terms of remaining activity at 2.5 µM. TRUE

Reference for the values: paper PMC6277434
